Answer each item with its documented IC50.
Tested System: Prostaglandin E synthase (Homo sapiens, UniProt O14684)
Sequence (O14684 whole entry): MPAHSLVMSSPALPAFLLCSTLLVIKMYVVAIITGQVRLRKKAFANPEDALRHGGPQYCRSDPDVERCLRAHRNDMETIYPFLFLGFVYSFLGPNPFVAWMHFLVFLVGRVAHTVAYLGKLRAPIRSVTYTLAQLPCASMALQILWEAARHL
Experiment Description: Inhibition of human mPGES1 assessed as PGE2 level after 41 sec by ELISA
Write the value in nM as a bare number.

So for `O=C(Nc1ccc(-c2cccc(Cl)c2Cl)cc1)C1=C(O)c2ccccc2S(=O)(=O)N1` , the logged IC50 turned out to be 38

So for `N#Cc1ccc(-c2ccc(NC(=O)C3=C(O)c4ccccc4S(=O)(=O)N3)cc2)cc1` , the logged IC50 turned out to be 3960

So for `Cc1cccc(-c2ccc(NC(=O)C3=C(O)c4ccccc4S(=O)(=O)N3)cc2)c1C` , the logged IC50 turned out to be 1000

So for `O=C(Nc1cccc(C(=O)c2ccc(Cl)cc2)c1)C1=C(O)c2ccccc2S(=O)(=O)N1` , the logged IC50 turned out to be 3910

So for `O=C(Nc1ccc(C(=O)c2ccc(Cl)cc2)c(Cl)c1)C1=C(O)c2ccccc2S(=O)(=O)N1` , the logged IC50 turned out to be 110

So for O=C(Nc1ccc(-c2ccc(Cl)c(Cl)c2)cc1)C1NS(=O)(=O)c2ccccc2C1O (stereo not given) , the logged IC50 turned out to be 190

So for `O=C(Nc1ccc(-c2ccccc2)cc1)C1=C(O)c2ccccc2S(=O)(=O)N1` , the logged IC50 turned out to be 3130

So for `CN1C(C(=O)Nc2ccc(-c3ccc(Cl)c(Cl)c3)cc2)=C(O)c2ccccc2S1(=O)=O` , the logged IC50 turned out to be 280

So for `COc1ccc2c(c1)C(O)=C(C(=O)Nc1ccc(-c3ccc(Cl)c(Cl)c3)cc1)NS2(=O)=O` , the logged IC50 turned out to be 690

So for `O=C(Nc1ccc(-c2ccc(Cl)cc2Cl)cn1)C1=C(O)c2ccccc2S(=O)(=O)N1` , the logged IC50 turned out to be 11700

So for `O=C(CNS(=O)(=O)c1ccccc1CO)Nc1ccc(-c2ccc(Cl)c(Cl)c2)cc1` , the logged IC50 turned out to be 29600

So for `O=C(Nc1ccc(-c2ccc(Cl)c(Cl)c2)cc1)C1=C(O)c2ccc(O)cc2S(=O)(=O)N1` , the logged IC50 turned out to be 180

So for `O=C(Nc1ccccc1CCc1ccc(Cl)c(Cl)c1)C1=C(O)c2ccccc2S(=O)(=O)C1` , the logged IC50 turned out to be 1680

So for `O=C(Nc1ccc(-c2ccc(Cl)cc2)cc1)C1=C(O)c2ccccc2S(=O)(=O)N1` , the logged IC50 turned out to be 290

So for `O=C(Nc1ccc(-c2ccc(Cl)c(Cl)c2)cn1)C1=C(O)c2ccccc2S(=O)(=O)N1` , the logged IC50 turned out to be 65600

So for `COc1ccc2c(c1)S(=O)(=O)NC(C(=O)Nc1ccc(-c3ccc(Cl)c(Cl)c3)cc1)=C2O` , the logged IC50 turned out to be 3050

So for `O=C(Nc1ccc(-c2ccc(Cl)c(Cl)c2)cc1)C1=C(O)c2cc(O)ccc2S(=O)(=O)N1` , the logged IC50 turned out to be 98

So for `O=C(Nc1ccc(CCc2ccc(Cl)c(Cl)c2)cc1)C1=C(O)c2ccccc2S(=O)(=O)N1` , the logged IC50 turned out to be 110

So for `O=C(Nc1ccc(-c2ccc(Cl)nc2)cc1)C1=C(O)c2ccccc2S(=O)(=O)N1` , the logged IC50 turned out to be 12700

The measurements presented in this section are drawn from ChEMBL document CHEMBL1154975.
